// values below are reported normalized growth
Assay: chemical genetic growth profiling, strain panel (AID 1159580);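 note: tested at 20 µM; growth read once vehicle control cultures reached saturation at 30 °C; 1 = growth at the plate median or of vehicle wells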
Conditions: S. cerevisiae deletion strains, growth OD, locus YOR290C, strain snf2, stronger effect = lower value
Among all 5,500 compounds or so, about 2,000 (36%) were called active. Roughly 18% stayed inconclusive and do not appear here. The list shows a part of the results.
Please reply with the value in numeric form only.

Below, 6 molecules whose answers are already recorded.
CCC(C)C(NC)C(=O)O (configuration not stated) :: 1.02
NNC(=O)c1ccncc1 :: 0.965
Clc1ccccc1C(c1ccccc1)(c1ccccc1)n1ccnc1 :: 0.0637
CC(=O)/C=C\[C@@H]1[C@@]2(C)CCCC(C)(C)C2CC[C@@]1(C)O (some centres not stated) :: 0.974
OC(CCN1CCCCC1)(c1ccccc1)C1CCCCC1 (configuration not stated) :: 0.989
FC(F)(F)c1ccccc1-n1ccnc1 :: 0.939

query: Quick one: normalized growth for CC(=O)NC(C(=O)O)C(C)(C)SN=O (configuration not stated) ?
result: 0.981

====

Assay: chemical genetic growth profiling, strain panel (AID 1159580)
Settings: S. cerevisiae deletion strains, growth OD, locus YDL040C, strain nat1
The campaign covered roughly 5,500 compounds. About 2,000 (36%) were called active. Not shown: some 18% with an inconclusive outcome. No stated cut-off is given here; in the data, active means normalized growth mostly below about 0.91 (no sharp cut-off); inconclusive means no clear call, values can overlap the other calls; inactive means mostly above about 0.92. The list shows a part of the results.
The reply should be one of these categories: active, inactive

Solved entries (count: 5):
C/C=C1\[C@H]2C=C(C)C[C@]1(N)c1ccc(=O)[nH]c1C2 :: inactive
COc1c(-c2coc3cc4c(cc3c2=O)CC(O)C(C)(C)O4)ccc2c1C=CC(C)(C)O2 (stereo unspecified) :: inactive
CNC(=O)O/N=C\C(C)(C)SC :: inactive
O=C(Nc1ccc(C(=O)O)c(O)c1)c1ccccc1 :: inactive
CO[C@@]12[C@@H]3NC3CN1C1=C(C(=O)C(N)=C(C)C1=O)[C@@H]2COC(N)=O (stereo partly specified) :: inactive

Here's the next entry for you.
query: Give the logged outcome of this assay for the following compound: O=c1[nH]cc(F)c(=O)[nH]1
result: active

====

Assay: chemical genetic growth profiling, strain panel (AID 1159580)
Settings: S. cerevisiae deletion strains, growth OD, locus YLR342W, strain FKS1 (second series)
Out of some 5,500 compounds screened, about 2,000 (36%) were called active. Inconclusive results (about 18%) are left out. No stated cut-off is given here; in the data, active means normalized growth mostly below about 0.91 (no sharp cut-off); inconclusive means no clear call, values can overlap the other calls; inactive means mostly above about 0.92. This is one part of the list.
The reply should be one of these categories: T = active, F = inactive

NCCC(=O)N[C@@H](Cc1cnc[nH]1)C(=O)O :: F
Cc1cc(C(C)(C)C)c(O)c(C(C)(C)C)c1 :: F
CC(C)(Sc1cc(C(C)(C)C)c(O)c(C(C)(C)C)c1)Sc1cc(C(C)(C)C)c(O)c(C(C)(C)C)c1 :: F
COc1ccc2c3c([nH]c2c1)C(C)=NCC3 :: F
C#C[C@]1(OC(C)=O)CCC2C3CCC4=CC(=O)CC[C@@H]4C3CC[C@@]21C (some centres not stated) :: F

query: Give the logged outcome of this assay for the following compound: CCOP(=S)(OCC)Oc1cc(C)nc(C(C)C)n1
result: F

query: Give the logged outcome of this assay for the following compound: CC(=O)NC(C(=O)O)C(C)(C)SN=O (configuration not stated)
result: F

query: Give the logged outcome of this assay for the following compound: COc1ccc2c(c1)c(CC(=O)O)c(C)n2C(=O)c1ccc(Cl)cc1
result: F

query: Give the logged outcome of this assay for the following compound: NC(N)=N/N=C/c1c(Cl)cccc1Cl
result: F

query: Give the logged outcome of this assay for the following compound: CCOP(=S)(OCC)Oc1nc(Cl)c(Cl)cc1Cl
result: F

query: Give the logged outcome of this assay for the following compound: CC(=O)O[C@@H]1CC[C@@]2(C)C(CC[C@]3(C)C2CC=C2C4CC(C)(C)CC[C@]4(C(=O)O)CC[C@]23C)C1(C)C (some centres not stated)
result: F

query: Give the logged outcome of this assay for the following compound: C[C@@H]1OC(O[C@H]2[C@H](O)[C@@H](O)[C@H](OC[C@H]3O[C@@H](OC(=O)[C@]45CCC(C)(C)CC4C4=CCC6[C@@]7(C)CC[C@H](OC8OC[C@H](O)[C@H](O)[C@H]8OC8O[C@@H](C)[C@H](O)[C@@H](O)[C@H]8O)[C@@](C)(CO)C7CC[C@@]6(C)[C@]4(C)CC5)[C@H](O)[C@@H](O)[C@@H]3O)O[C@@H]2CO)[C@H](O)[C@H](O)[C@H]1O (some centres not stated)
result: F

query: Give the logged outcome of this assay for the following compound: O=c1cc(CO)occ1O
result: F

query: Give the logged outcome of this assay for the following compound: Nc1ccc(S(=O)(=O)Nc2ccnn2-c2ccccc2)cc1
result: F

====

// values below are reported normalized growth
Assay: chemical genetic growth profiling, strain panel (AID 1159580);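 note: tested at 20 µM; growth read once vehicle control cultures reached saturation at 30 °C; 1 = growth at the plate median or of vehicle wells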
Conditions: S. cerevisiae deletion strains, growth OD, locus YJL115W, strain asf1, stronger effect = lower value
The whole screen tested about 5,500 compounds, of which about 2,000 (36%) were called active. Not shown: some 18% with an inconclusive outcome. Some of the results follow.
Please reply with the value in numeric form only.

N#CC(O[C@@H]1O[C@H](CO[C@@H]2O[C@H](CO)[C@@H](O)[C@H](O)[C@H]2O)[C@@H](O)[C@H](O)[C@H]1O)c1ccccc1 (some centres undefined) :: 0.977
Nc1ccccc1C(=O)CC(N)C(=O)O (centres undefined) :: 0.985
CCC(C)C(=O)O[C@H]1[C@H](O)C2C(CN3CC(C)CCC3[C@@]2(C)O)C2C[C@]34O[C@]5(O)C(OC(=O)C(C)(O)CC)CC[C@@]3(C)C5C(OC(C)=O)[C@@H](OC(C)=O)C4[C@@]21O (some centres undefined) :: 1.03

query: Quick one: normalized growth for CC(C)CCCC1(C)C=Cc2c(O)c3c(c(CCC(C)C)c2O1)OC12C(CC4CC1C(C)(C)OC2(CCC(C)C(=O)O)C4O)C3=O (centres undefined) ?
result: 0.996

====

Test: chemical genetic growth profiling, strain panel (AID 1159580);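 note: tested at 20 µM; growth read once vehicle control cultures reached saturation at 30 °C; 1 = growth at the plate median or of vehicle wells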
Conditions: S. cerevisiae deletion strains, growth OD, locus YDL101C, strain DUN1
Out of some 5,500 compounds screened, about 2,000 (36%) were called active. Not shown: some 18% with an inconclusive outcome. No stated cut-off is given here; in the data, active means normalized growth mostly below about 0.91 (no sharp cut-off); inconclusive means no clear call, values can overlap the other calls; inactive means mostly above about 0.92. The list shows a part of the results. Where a SMILES comes first, the peptide text is derived from it. The star is where a group is joined. For = O=C*
The reply should be one of these categories: Y for active, N for inactive

Solved entries (count: 10):
CCOC(=O)OC(C)OC(=O)C1N2C(=O)C(NC(=O)[C@H](N)c3ccccc3)C2SC1(C)C (stereo partly specified) :: N
Cc1cc(C(C)(C)C)c(O)c(C(C)(C)C)c1 :: N
CC(C)(Sc1cc(C(C)(C)C)c(O)c(C(C)(C)C)c1)Sc1cc(C(C)(C)C)c(O)c(C(C)(C)C)c1 :: N
NC(=S)COc1ccccc1Cl :: N
CC(OCc1ccccc1)C(NC(=O)OC(C)(C)C)C(N)=O (stereo unspecified) :: N
Cc1cc(O)cc(O)c1C(=O)O :: N
CCC(C)C(=O)O[C@H]1[C@H](O)C2C(CN3CC(C)CCC3[C@@]2(C)O)C2C[C@]34O[C@]5(O)C(OC(=O)C(C)(O)CC)CC[C@@]3(C)C5C(OC(C)=O)[C@@H](OC(C)=O)C4[C@@]21O (stereo partly specified) :: N
Cc1nc(-c2nnc(Sc3ccc(C(F)(F)F)cc3[N+](=O)[O-])n2C)cs1 :: N
O=C1c2c(O)cccc2Cc2cccc(O)c21 :: N
S=C(NCc1cccnc1)Nc1ccccc1Cl :: N

query: Give the logged outcome of this assay for the following compound: C=C1SC(=Nc2cccc(OC)c2)N(C(=O)C(c2ccccc2)C2CCCC2)C1(C)C (stereo unspecified)
result: N

query: Give the logged outcome of this assay for the following compound: CC(C)=CCCC1(C)C=Cc2c(O)c3c(c(CC=C(C)C)c2O1)OC12C(CC4CC1C(C)(C)OC2(C/C=C(/C)C(=O)O)C4O)C3=O (stereo unspecified)
result: N

query: Give the logged outcome of this assay for the following compound: O=C(Nc1ccc(Cl)cc1)SCc1c(Cl)cccc1Cl
result: N

query: Give the logged outcome of this assay for the following compound: CSCCC(NC=O)C(=O)NC(Cc1ccccc1)C(=O)O (stereo not drawn) (For-Met-Phe-OH; configuration not given here)
result: N

query: Give the logged outcome of this assay for the following compound: O=C(COc1ccc(Cl)cc1)N1CCN(Cc2ccc3c(c2)OCO3)CC1
result: N

query: Give the logged outcome of this assay for the following compound: CC(=O)Nc1c(C)c(C)c(C)c(C)c1NC(C)=O
result: N

query: Give the logged outcome of this assay for the following compound: CSC(=CC(=O)c1ccc(Cl)cc1)SC
result: Y

====

// values below are reported normalized growth
Test: chemical genetic growth profiling, strain panel (AID 1159580);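 note: tested at 20 µM; growth read once vehicle control cultures reached saturation at 30 °C; 1 = growth at the plate median or of vehicle wells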
Details: S. cerevisiae deletion strains, growth OD, locus YKR026C, strain gcn3, stronger effect = lower value
The campaign covered roughly 5,500 compounds. About 2,000 (36%) were called active. Roughly 18% stayed inconclusive and do not appear here. This is one part of the list.
Please reply with the value in numeric form only.

CC(=O)/C=C\[C@@H]1[C@@]2(C)CCCC(C)(C)C2CC[C@@]1(C)O (some centres not stated) :: 0.979
O=C(CNC(=O)c1ccc(Cl)cc1)NO :: 0.992
N=C(N)c1ccc(OCCCCCOc2ccc(C(=N)N)cc2)cc1 :: 0.967

query: Quick one: normalized growth for O=c1ccc2ccc(O)cc2o1 ?
result: 0.991

query: Quick one: normalized growth for O=c1oc2cc(O)ccc2s1 ?
result: 1.01

query: Quick one: normalized growth for CC(C)CC(N(C)C)C1(c2ccc(Cl)cc2)CCC1 (configuration not stated) ?
result: 1.01

query: Quick one: normalized growth for COc1cc(C(=O)NCCCCCC(=O)O)cc(OC)c1OC ?
result: 0.993

Hey, just so you know, these numbers are from PubChem BioAssay AID1159580.
